Where do the numbers come from? From ChEMBL document CHEMBL1137554.

Entries and their measured Activity follow.
tested on: L1210; experiment: Cytotoxicity against vincristine-resistant L1210 cells by XTT assay; type: functional, Mus musculus
Provide the reading as a plain figure in µM.

Request: Give its Activity value. Item: `CN(C)CCn1ccc2c1C(=O)c1cnccc1/C2=N/OCCO`
Response: 0.16

Request: Same again, this time with `CN(C)CCO/N=C1/c2ccncc2C(=O)c2c1ccn2CCN(C)C`
Response: 0.11

* * *

system: SK-OV-3; experiment: Cytotoxicity against SKOV3 cells after 48 hrs by XTT assay; format: functional, cell-based, Homo sapiens
measured-attribute: IC50 (µmol)
Provide the reading as a plain figure in µmol.

Consider the worked cases shown below.
[
  {
    "smiles-str": "CO/N=C1/c2ccncc2C(=O)c2c1ccn2CCN(C)C",
    "IC50 / µmol": 2.24
  },
  {
    "smiles-str": "CN(C)CCO/N=C1/c2ccncc2C(=O)c2c1ccn2CCN(C)C",
    "IC50 / µmol": 0.94
  }
]

Request: Under SK-OV-3: IC50 value of `CN(C)CCn1ccc2c1C(=O)c1cnccc1C2=O` ?
Response: 13.87

Request: Same again, this time with `CN(C)CCn1ccc2c1C(=O)c1cnccc1/C2=N/OCCO`
Response: 0.48
